- STUDY TARGET: Muscarinic acetylcholine receptor M3 (Cavia porcellus)
- CONDITION NOTES: Urinary bladder
- Description: The compound was tested for urinary bladder contraction ability in guinea pig.

{"columns": ["COMPOUND", "STUDY TARGET", "ID50"],
 "data": [
  ["C[n+]1ccn(CC2CC(c3ccccc3)(c3ccccc3)C(=O)O2)c1C(C)(C)C (stereo not drawn)", "Muscarinic acetylcholine receptor M3 (Cavia porcellus)", "0.28 mg/kg"],
  ["CCCc1n(CC2CC(c3ccccc3)(c3ccccc3)C(=O)O2)cc[n+]1C (stereo not drawn)", "Muscarinic acetylcholine receptor M3 (Cavia porcellus)", "0.9 mg/kg"],
  ["CCCc1nccn1CC1CC(c2ccccc2)(c2ccccc2)C(=O)O1 (stereo not drawn)", "Muscarinic acetylcholine receptor M3 (Cavia porcellus)", "12.5 mg/kg"],
  ["O=C1OC(Cn2cccn2)CC1(c1ccccc1)c1ccccc1 (stereo not drawn)", "Muscarinic acetylcholine receptor M3 (Cavia porcellus)", "> 10 mg/kg"],
  ["O=C1OC(Cn2cc[n+]3c2CCC3)CC1(c1ccccc1)c1ccccc1 (stereo not drawn)", "Muscarinic acetylcholine receptor M3 (Cavia porcellus)", "2.1 mg/kg"],
  ["CC(C)c1nccn1CC1CC(c2ccccc2)(c2ccccc2)C(=O)O1 (stereo in doubt; 22)", "Muscarinic acetylcholine receptor M3 (Cavia porcellus)", "3.6 mg/kg"],
  ["CC(C)(C)c1nccn1CC1CC(c2ccccc2)(c2ccccc2)C(=O)O1 (stereo not drawn)", "Muscarinic acetylcholine receptor M3 (Cavia porcellus)", "1.3 mg/kg"],
  ["Cc1nccn1CC1CC(c2ccccc2)(c2ccccc2)C(=O)O1 (stereo not drawn)", "Muscarinic acetylcholine receptor M3 (Cavia porcellus)", "29 mg/kg"]
]}

====

- STUDY TARGET: Muscarinic acetylcholine receptor (Homo sapiens) (UniProt P20309+P08173+P11229+P08172+P08912)
ID50 strictly less than 4 mg/kg = Satisfied. Otherwise Not satisfied.

{"columns": ["COMPOUND", "CLASSIFICATION"],
 "data": [
  ["Cc1nccn1CC1CC(c2ccccc2)(c2ccccc2)C(=O)O1 (stereo not given)", "Not satisfied"],
  ["Cc1ccc[n+]2ccn(CC3CC(c4ccccc4)(c4ccccc4)C(=O)O3)c12 (stereo not given)", "Not satisfied"],
  ["C[n+]1ccn(CC2CC(c3ccccc3)(c3ccccc3)C(=O)O2)c1C(C)(C)C (stereo not given)", "Satisfied"],
  ["CCc1n(CC2CC(c3ccccc3)(c3ccccc3)C(=O)O2)cc[n+]1C (stereo not given)", "Satisfied"],
  ["C[N+](C)(C)CC1CC(c2ccccc2)(c2ccccc2)C(=O)O1 (stereo not given)", "Not satisfied"],
  ["CCCc1nccn1CC1CC(c2ccccc2)(c2ccccc2)C(=O)O1 (stereo not given)", "Not satisfied"],
  ["CC(C)c1nccn1C[C@H]1CC(c2ccccc2)(c2ccccc2)C(=O)O1", "Not satisfied"],
  ["CC1CCC[n+]2ccn(CC3CC(c4ccccc4)(c4ccccc4)C(=O)O3)c21 (stereo not given)", "Satisfied"],
  ["CC(C)c1nccn1CC1CC(c2ccccc2)(c2ccccc2)C(=O)O1 (stereo in doubt; 22)", "Not satisfied"],
  ["CC(C)(C)c1nccn1CC1CC(c2ccccc2)(c2ccccc2)C(=O)O1 (stereo not given)", "Satisfied"]
]}

====

- STUDY TARGET: Muscarinic acetylcholine receptor (Homo sapiens) (UniProt P20309+P08173+P11229+P08172+P08912)

{"columns": ["COMPOUND", "VALUE RELATION SIGN", "ID50 / mg/kg"],
 "data": [
  ["CC(C)c1n(CC2CC(c3ccccc3)(c3ccccc3)C(=O)O2)cc[n+]1C (centres undefined)", "=", 0.02],
  ["CCN(CC)CC1CC(c2ccccc2)(c2ccccc2)C(=O)O1 (centres undefined)", ">", 100],
  ["CCc1nccn1C[C@H]1CC(c2ccccc2)(c2ccccc2)C(=O)O1", "=", 5.3],
  ["CN(C)CC1CC(c2ccccc2)(c2ccccc2)C(=O)O1 (centres undefined)", "=", 61.6],
  ["O=C1OC(Cn2cc[n+]3ccccc23)CC1(c1ccccc1)c1ccccc1 (centres undefined)", "=", 8],
  ["O=C1OC(Cn2cc[n+]3c2CCC3)CC1(c1ccccc1)c1ccccc1 (centres undefined)", "=", 5.5],
  ["O=C1OC(Cn2cccn2)CC1(c1ccccc1)c1ccccc1 (centres undefined)", "=", 3.8],
  ["CC(C)c1nccn1CC1CC(c2ccccc2)(c2ccccc2)C(=O)O1 (stereo in doubt; 44)", ">", 100],
  ["CCCc1n(CC2CC(c3ccccc3)(c3ccccc3)C(=O)O2)cc[n+]1C (centres undefined)", "=", 0.54]
]}
